ALK (Homo sapiens, UniProt Q9UM73) data, read-out IC50
Sequence (Q9UM73 19-1620): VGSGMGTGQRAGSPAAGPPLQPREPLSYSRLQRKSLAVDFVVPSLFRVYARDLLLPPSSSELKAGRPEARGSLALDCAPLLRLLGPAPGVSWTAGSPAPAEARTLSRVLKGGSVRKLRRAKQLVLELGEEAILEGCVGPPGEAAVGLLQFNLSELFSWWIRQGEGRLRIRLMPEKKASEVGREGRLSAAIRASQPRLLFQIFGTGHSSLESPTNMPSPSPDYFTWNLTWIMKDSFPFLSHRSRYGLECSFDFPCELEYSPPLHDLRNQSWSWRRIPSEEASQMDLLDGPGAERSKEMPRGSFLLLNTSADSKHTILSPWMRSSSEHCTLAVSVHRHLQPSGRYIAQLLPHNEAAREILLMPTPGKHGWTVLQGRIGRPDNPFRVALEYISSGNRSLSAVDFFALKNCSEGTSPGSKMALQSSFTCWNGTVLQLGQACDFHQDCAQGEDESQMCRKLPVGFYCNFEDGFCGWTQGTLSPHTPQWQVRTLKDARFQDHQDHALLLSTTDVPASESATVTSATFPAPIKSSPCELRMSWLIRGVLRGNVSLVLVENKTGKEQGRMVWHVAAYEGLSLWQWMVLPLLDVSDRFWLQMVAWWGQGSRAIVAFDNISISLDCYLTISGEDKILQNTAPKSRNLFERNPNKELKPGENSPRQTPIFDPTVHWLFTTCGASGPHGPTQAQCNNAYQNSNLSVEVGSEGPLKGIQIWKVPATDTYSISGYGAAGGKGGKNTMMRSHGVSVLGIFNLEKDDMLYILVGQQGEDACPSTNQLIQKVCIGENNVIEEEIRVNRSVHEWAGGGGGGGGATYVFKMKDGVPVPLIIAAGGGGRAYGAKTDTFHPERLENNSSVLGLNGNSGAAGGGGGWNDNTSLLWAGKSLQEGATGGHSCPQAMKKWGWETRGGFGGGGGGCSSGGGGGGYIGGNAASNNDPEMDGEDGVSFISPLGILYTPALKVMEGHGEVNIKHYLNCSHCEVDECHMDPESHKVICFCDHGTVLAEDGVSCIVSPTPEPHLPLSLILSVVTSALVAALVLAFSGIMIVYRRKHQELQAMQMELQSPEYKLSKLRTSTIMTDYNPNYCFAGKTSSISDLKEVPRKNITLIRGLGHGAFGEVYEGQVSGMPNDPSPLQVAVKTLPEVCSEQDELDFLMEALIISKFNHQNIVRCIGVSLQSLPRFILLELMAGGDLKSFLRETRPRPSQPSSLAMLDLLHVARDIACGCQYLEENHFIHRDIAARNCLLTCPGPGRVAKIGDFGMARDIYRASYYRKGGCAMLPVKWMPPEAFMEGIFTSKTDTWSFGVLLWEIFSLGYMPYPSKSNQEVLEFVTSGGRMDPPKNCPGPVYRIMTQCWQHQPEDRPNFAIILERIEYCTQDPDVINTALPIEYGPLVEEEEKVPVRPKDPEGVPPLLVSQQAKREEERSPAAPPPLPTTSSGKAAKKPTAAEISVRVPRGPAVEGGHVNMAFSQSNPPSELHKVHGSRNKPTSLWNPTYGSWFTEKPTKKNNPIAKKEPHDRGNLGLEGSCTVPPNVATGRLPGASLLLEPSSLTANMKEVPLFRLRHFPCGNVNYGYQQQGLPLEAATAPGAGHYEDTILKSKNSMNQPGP
// units = µM; emit number, no label

1. O=C1NC2(CC2)COc2ncc(F)cc2[C@H]2CCON2c2ccn3ncc1c3n2 [WX002A] : 0.013
2. C[C@@H]1COc2ccc(F)cc2[C@H]2CCON2c2ccn3ncc(c3n2)C(=O)N1 [WX017A] : 0.119
3. O=C1NC2(COC2)COc2ncc(F)cc2[C@H]2CCON2c2ccn3ncc1c3n2 [WX006A] : 0.0792

Which IC50 is reported for this compound? O=C1N[C@@H]2COC[C@@H]2Oc2ncc(F)cc2[C@H]2CCON2c2ccn3ncc1c3n2 [WX008A] 0.0104

====

Measured pIC50 (UniProt P04629)
Sequence (P04629 33-796): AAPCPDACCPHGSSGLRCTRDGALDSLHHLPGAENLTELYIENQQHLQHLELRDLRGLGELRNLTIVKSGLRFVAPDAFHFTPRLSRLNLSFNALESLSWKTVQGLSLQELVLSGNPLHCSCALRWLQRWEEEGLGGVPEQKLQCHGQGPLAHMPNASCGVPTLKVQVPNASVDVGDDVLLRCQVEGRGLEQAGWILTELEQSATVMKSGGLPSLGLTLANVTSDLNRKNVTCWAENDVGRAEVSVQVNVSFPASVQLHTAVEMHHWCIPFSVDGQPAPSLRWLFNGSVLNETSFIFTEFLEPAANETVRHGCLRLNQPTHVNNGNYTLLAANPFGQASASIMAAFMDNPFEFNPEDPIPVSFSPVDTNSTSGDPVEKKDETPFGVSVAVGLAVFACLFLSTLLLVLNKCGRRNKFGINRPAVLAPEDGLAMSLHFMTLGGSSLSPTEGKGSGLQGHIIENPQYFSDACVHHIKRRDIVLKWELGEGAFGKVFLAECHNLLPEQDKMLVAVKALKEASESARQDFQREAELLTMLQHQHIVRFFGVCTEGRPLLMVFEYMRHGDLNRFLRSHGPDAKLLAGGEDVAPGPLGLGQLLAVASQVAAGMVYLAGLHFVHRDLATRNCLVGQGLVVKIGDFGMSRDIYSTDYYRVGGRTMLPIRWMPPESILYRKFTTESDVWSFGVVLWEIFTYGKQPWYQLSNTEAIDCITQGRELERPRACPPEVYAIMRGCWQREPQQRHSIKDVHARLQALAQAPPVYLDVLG
To interpret pIC50, take it as minus log10 of a concentration measured in moles per litre.

I have this compound here, CC(=O)N1CC[C@H]2NC(=O)c3cnn4ccc(nc34)N3OCC[C@H]3c3cc(F)cnc3O[C@H]2C1 [WX014A] , and I need its recorded pIC50. 5.91

Item under review: O=C1NC2(COC2)COc2ncc(F)cc2[C@H]2CCON2c2ccn3ncc1c3n2 [WX006A] . Reported pIC50? 8.01

====

- Experimental Details: In vivo cassette pharmacokinetic test in mice
- Set-up: species or system male CD-1 mice
- Protocol Conditions: PO @ 3 mpk, cassette, mice; read-out: Peak concentration Cmax
Measurement Type: Cmax (µM)
Provide only the numeric value, understood in µM.

Would you kindly share the measured Cmax for O=C1NC2(CC2)COc2ncc(F)cc2[C@H]2CCON2c2ccn3ncc1c3n2 [WX002A] ? 4.74

====

- Experimental Details: In vivo pharmacokinetic test in mice
- Parameters: species or system male CD-1 mice
- Protocol Conditions: PO dose of 10 mL/kg, read-out: Peak concentration Cmax
Each record here notes measured Cmax.
Report the value in µM with no unit label.

1) O=C(Nc1cnn2ccc(N3CCC[C@@H]3c3cc(F)ccc3F)nc12)N1CC[C@H](O)C1 [LOXO-101, Larotrectinib, reference compound] : 1.55
2) O=C1NC2(CC2)COc2ncc(F)cc2[C@H]2CCON2c2ccn3ncc1c3n2 [WX002A] : 9.14

Item under review: O=C1NC2(CC2)COc2ccc(F)cc2[C@H]2CCON2c2ccn3ncc1c3n2 (single isomer, unassigned) [WX003A] . Reported Cmax? 7.36

I'd like to know its Cmax. The compound in question is C[C@@H]1CCc2ncc(F)cc2[C@H]2CCCN2c2ccn3ncc(c3n2)C(=O)N1 [LOXO-195, reference compound] 12.7

====

- Study Target: Ros-G2032R (Homo sapiens, UniProt P08922, G2032R)
- Sequence (P08922 28-2347 G2032R): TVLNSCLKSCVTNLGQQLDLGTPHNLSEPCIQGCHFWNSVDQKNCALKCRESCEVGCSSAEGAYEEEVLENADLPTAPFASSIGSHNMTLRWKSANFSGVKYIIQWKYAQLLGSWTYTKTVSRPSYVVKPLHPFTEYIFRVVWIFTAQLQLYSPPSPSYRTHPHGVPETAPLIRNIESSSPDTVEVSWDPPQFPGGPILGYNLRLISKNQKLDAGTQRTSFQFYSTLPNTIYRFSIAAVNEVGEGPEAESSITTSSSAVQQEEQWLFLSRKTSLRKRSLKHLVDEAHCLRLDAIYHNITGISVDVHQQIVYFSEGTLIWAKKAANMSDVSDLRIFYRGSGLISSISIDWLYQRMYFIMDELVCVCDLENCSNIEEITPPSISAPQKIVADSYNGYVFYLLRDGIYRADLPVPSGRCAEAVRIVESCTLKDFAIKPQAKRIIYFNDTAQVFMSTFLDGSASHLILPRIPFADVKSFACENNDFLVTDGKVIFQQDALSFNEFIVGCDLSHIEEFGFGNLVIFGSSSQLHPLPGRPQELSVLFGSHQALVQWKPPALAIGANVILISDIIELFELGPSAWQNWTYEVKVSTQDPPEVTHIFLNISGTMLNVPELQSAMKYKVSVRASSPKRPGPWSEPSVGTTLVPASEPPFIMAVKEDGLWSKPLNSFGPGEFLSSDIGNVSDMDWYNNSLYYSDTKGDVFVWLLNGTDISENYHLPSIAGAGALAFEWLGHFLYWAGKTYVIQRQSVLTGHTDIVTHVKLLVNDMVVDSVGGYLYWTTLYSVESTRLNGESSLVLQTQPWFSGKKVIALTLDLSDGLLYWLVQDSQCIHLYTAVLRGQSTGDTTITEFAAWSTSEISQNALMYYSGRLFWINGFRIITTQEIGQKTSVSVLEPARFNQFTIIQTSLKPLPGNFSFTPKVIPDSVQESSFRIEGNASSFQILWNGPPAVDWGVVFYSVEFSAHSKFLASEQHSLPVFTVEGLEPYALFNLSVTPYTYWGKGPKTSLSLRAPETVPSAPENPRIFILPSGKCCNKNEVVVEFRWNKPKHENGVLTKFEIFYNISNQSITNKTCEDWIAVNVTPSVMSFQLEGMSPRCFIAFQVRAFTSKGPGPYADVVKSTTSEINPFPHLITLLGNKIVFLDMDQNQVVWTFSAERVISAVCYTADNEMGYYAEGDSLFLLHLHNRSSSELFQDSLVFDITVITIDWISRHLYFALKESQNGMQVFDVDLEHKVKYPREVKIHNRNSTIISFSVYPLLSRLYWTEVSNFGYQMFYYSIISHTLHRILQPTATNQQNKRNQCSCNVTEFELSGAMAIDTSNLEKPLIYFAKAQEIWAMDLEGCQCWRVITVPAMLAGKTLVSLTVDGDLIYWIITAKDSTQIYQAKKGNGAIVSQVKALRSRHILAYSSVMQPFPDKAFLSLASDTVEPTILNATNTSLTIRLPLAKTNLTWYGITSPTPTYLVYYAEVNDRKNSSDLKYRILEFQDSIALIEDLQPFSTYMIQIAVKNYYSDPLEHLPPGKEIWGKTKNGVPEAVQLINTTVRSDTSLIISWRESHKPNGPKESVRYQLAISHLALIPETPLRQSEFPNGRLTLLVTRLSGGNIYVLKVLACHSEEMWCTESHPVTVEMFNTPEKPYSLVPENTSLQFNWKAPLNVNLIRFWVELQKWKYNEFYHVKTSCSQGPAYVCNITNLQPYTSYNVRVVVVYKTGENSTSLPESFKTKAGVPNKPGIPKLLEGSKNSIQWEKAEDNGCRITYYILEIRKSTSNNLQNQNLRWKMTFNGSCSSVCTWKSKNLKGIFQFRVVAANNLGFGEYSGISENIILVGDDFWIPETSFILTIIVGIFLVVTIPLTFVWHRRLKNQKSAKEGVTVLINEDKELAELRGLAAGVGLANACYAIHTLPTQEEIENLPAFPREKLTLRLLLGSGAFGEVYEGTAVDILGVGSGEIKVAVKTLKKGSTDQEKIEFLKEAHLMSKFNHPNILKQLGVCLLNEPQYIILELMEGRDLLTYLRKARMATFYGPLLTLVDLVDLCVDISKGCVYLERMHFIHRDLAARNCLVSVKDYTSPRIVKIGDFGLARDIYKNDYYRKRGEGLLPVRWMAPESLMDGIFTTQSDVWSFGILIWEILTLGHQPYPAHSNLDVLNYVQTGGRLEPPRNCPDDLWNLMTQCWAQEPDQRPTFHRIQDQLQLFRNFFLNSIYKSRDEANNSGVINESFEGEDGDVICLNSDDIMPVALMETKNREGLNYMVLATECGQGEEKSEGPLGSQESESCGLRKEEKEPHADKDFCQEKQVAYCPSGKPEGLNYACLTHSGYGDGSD
- Experimental Details: Kinase inhibitory activity (33P-ATP filter binding, Reaction Biology Corp.)
- Protocol Conditions: read-out: The half maximal inhibitory concentration IC50 on the kinases, Ros-G2032R
Measurement Type: pIC50
The read-out pIC50 is expressed as -log10 of concentration in moles per litre.

Consider the following illustrative entries.
1. O=C1N[C@@H]2COCC[C@@H]2Oc2ncc(F)cc2[C@H]2CCON2c2ccn3ncc1c3n2 [WX010B] : 9.21
2. C[C@H]1CNC(=O)c2cnn3ccc(nc23)N2OCC[C@@H]2c2cc(F)cnc2O1 [WX005B] : 8.58
3. O=C1N[C@@H]2CCC[C@@H]2Oc2ncc(F)cc2[C@H]2CCON2c2ccn3ncc1c3n2 [WX007A] : 9.14
4. O=C1N[C@@H]2COC[C@@H]2Oc2ncc(F)cc2[C@H]2CCON2c2ccn3ncc1c3n2 [WX008A] : 9.28

// switching to the query compound
Which pIC50 is reported with Ros-G2032R (Homo sapiens, UniProt P08922, G2032R) for this entry: O=C1NC2(CC2)COc2ncc(F)cc2[C@H]2CCON2c2ccn3ncc1c3n2 [WX002A] ? 9.40
